Numbers sourced from patent US3984555A.

# Test system: running activity of mice pre-treated with α-amphetamine sulphate
# Assay Remarks: Inhibition of running activity of mice pre-treated with α-amphetamine sulphate (Table III, c)
# Type: in vivo
# Assay Context: Mus musculus, ip, 3 h; 12mg/kg i/p; 5 mg/kg α-amphetamine sulphate; 180 minutes; read-out: c % inhibition of motility in the treadwheel by 12mg/kg i/p
Examples of compounds with documented inhibition in vivo at 12 mg/kg follow.
All answers are understood in %, so give the number only.

These solved cases illustrate the format of a correct answer.
Compound | inhibition in vivo at 12 mg/kg, %
COc1cc2nc(CCN3CCN(c4ccccc4OC)CC3)[nH]c(=O)c2cc1OC [Example 6] | 19
COc1cc2nc(CCN3CCN(c4ccc(Cl)cc4)CC3)[nH]c(=O)c2cc1OC [Example 13] | 15

Now consider the entry below.
Q: Provide measured inhibition in vivo at 12 mg/kg value, entry: CCCC(C)(COC(N)=O)COC(N)=O [Meprobamate, reference compound]
Result: 11

====

Catalogue of inhibition in vivo at 12 mg/kg readings, one per entry.
# Test system: running activity of mice pre-treated with α-amphetamine sulphate
# Assay Remarks: Inhibition of running activity of mice pre-treated with α-amphetamine sulphate (Table III, c)
# Format: in vivo
# Assay Context: Mus musculus, ip, 3 h; 12mg/kg i/p; 5 mg/kg α-amphetamine sulphate; 180 minutes; read-out: c % inhibition of motility in the treadwheel by 12mg/kg i/p
Unit % implied. Number only.

Compound | Subject Of Test | inhibition in vivo at 12 mg/kg / %
COc1cc2nc(CCN3CCN(c4ccccc4)CC3)[nH]c(=O)c2cc1OC | running activity of mice pre-treated with α-amphetamine sulphate | 15

Q: Please indicate inhibition in vivo at 12 mg/kg recorded for COc1cc2nc(CCN3CCN(c4ccc(F)cc4)CC3)[nH]c(=O)c2cc1OC
Result: 10

Q: Please list inhibition in vivo at 12 mg/kg recorded for the compound CNC1=Nc2ccc(Cl)cc2C(c2ccccc2)=[N+]([O-])C1 [Chlordiazepoxide, chlorodiazepoxide, reference compound]
Result: 15

Q: Provide only the value of recorded inhibition in vivo at 12 mg/kg for COc1cc2nc(CCN3CCN(c4cccc(Cl)c4)CC3)[nH]c(=O)c2cc1OC
Result: 0

Q: Please give the documented inhibition in vivo at 12 mg/kg of COc1cc2nc(CCN3CCN(c4ccccc4Cl)CC3)[nH]c(=O)c2cc1OC
Result: 18

Q: Report measured inhibition in vivo at 12 mg/kg; entry is COc1cc2nc(CCN3CCN(c4cccc(C)c4)CC3)[nH]c(=O)c2cc1OC
Result: 13

Q: Indicate its recorded inhibition in vivo at 12 mg/kg; the compound in question is COc1cc2nc(CCN3CCN(c4ccc(C)cc4)CC3)[nH]c(=O)c2cc1OC
Result: 51

Q: Report measured inhibition in vivo at 12 mg/kg; entry is COc1cc2nc(CCN3CCN(c4ccccc4C)CC3)[nH]c(=O)c2cc1OC
Result: 11

====

LD50 values for the compounds below.
# Assay Remarks: LD50 (mean lethal dose) on the mouse (Table II)
# Assay Context: in vivo
Express it in mg/kg; write the number only.

Compound | LD50, mg/kg
CCOc1ccccc1N1CCN(CCc2nc3cc(OC)c(OC)cc3c(=O)[nH]2)CC1 | 300
COc1cc2nc(CCN3CCN(c4ccccc4OC)CC3)n(C)c(=O)c2cc1OC | 350
COc1cc2nc(CCCN3CCN(c4ccccc4OC)CC3)[nH]c(=O)c2cc1OC | 300
Cc1ccc(N(CC2=NCCN2)c2cccc(O)c2)cc1 [Phentolamine, phentolamine, reference compound] | 200
COc1cc2nc(CCN3CCN(c4ccccc4)CC3)[nH]c(=O)c2cc1OC | 70
COc1cc2nc(CCN3CCN(c4ccccc4OC)CC3)[nH]c(=O)c2cc1OC | 600
COc1cc2nc(CCN3CCN(c4ccccc4C)CC3)[nH]c(=O)c2cc1OC | 70
COc1cc2nc(CCN3CCN(c4cccc(C)c4)CC3)[nH]c(=O)c2cc1OC | 200

Q: Please give measured LD50 of the following entry: COc1cc2nc(CCN3CCN(c4ccc(C)cc4)CC3)[nH]c(=O)c2cc1OC
Result: 100

Q: Specify LD50 for COc1cc2nc(CCN3CCN(c4ccccc4F)CC3)[nH]c(=O)c2cc1OC and stop.
Result: 150

Q: Annotate the compound COc1cc2nc(CCN3CCN(c4ccc(F)cc4)CC3)[nH]c(=O)c2cc1OC with its measured LD50.
Result: 300

Q: In one line, give reported LD50 of the entry COc1cc2nc(CCN3CCN(c4cccc(F)c4)CC3)[nH]c(=O)c2cc1OC .
Result: 200

Q: Dear colleague, please send me the reported LD50 for COc1cc2nc(CCN3CCN(c4ccccc4Cl)CC3)[nH]c(=O)c2cc1OC when you can.
Result: 200
